B1: CPEB3 Ribozyme (parent)
chain: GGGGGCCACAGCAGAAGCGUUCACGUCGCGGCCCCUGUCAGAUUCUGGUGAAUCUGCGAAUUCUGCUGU

Variants of: B1
Experiment: self-cleavage, relative activity (ratio to wild type); higher = more cleavage; co-transcriptional
readoutType: self-cleavage
Number only, no unit.

// known answers, use as guide
[
  {
    "variantDescriptor": "U20C U69C",
    "readoutValue": 0.427
  },
  {
    "variantDescriptor": "A16G U20C",
    "readoutValue": 0.159
  },
  {
    "variantDescriptor": "A16C G48A",
    "readoutValue": 0.328
  },
  {
    "variantDescriptor": "G4C C45G",
    "readoutValue": 0.477
  },
  {
    "variantDescriptor": "C24U G56A",
    "readoutValue": 0.61
  },
  {
    "variantDescriptor": "G5A A52U",
    "readoutValue": 0.891
  },
  {
    "variantDescriptor": "G25C G58C",
    "readoutValue": 0.234
  },
  {
    "variantDescriptor": "A10U C57G",
    "readoutValue": 0.307
  },
  {
    "variantDescriptor": "A8G A42G",
    "readoutValue": 0.536
  },
  {
    "variantDescriptor": "G1C G68U",
    "readoutValue": 0.297
  }
]

Item U55G C66A : provide self-cleavage 0.437

Item G14U U38G : provide self-cleavage 0.111

Item C7A A8U : provide self-cleavage 0.769

Item G47A U53G : provide self-cleavage 0.971

Item G3C U44A : provide self-cleavage 0.0725

Item G3A C34G : provide self-cleavage 0.256

Item G41U A60G : provide self-cleavage 0.612

Item A51G A59U : provide self-cleavage 0.859

Item G3A A52G : provide self-cleavage 0.563

Item C34G A51U : provide self-cleavage 0.671
